Target: T1, human LAG3-His tagged recombinant protein (human)
T1 construct: also called human LAG3-His protein; recombinant human LAG3
T1 sequence (P18627 23-450): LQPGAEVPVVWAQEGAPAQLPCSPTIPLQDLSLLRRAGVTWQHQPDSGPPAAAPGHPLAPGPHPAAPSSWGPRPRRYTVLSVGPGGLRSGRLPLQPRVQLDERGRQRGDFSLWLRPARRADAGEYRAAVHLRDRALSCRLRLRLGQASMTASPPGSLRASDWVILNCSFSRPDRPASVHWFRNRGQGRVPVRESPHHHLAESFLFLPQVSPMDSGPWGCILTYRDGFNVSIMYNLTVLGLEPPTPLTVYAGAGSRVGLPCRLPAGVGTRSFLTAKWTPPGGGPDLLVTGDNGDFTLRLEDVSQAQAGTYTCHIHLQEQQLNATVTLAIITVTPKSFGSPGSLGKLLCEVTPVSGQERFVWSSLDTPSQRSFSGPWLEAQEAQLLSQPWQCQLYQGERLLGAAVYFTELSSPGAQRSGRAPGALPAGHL
Assay: SPR, Biacore T200; antibody captured, human LAG3-His as analyte, 1:1 Langmuir fit; n = 1
observation type: pKd
Scale: negative log10 of molar concentration, which is what pKd denotes.

Query: What value of measured pKd is listed for ADI-12126 (Q1E, M57A, M115L) IgG4 S228P/Kappa (antibody, V domains shown) VH: EVQLVQSGAEVKKPGASVKVSCKASGYTFTGYYMHWVRQAPGQGLEWMGWINANSGATNYAQKFQGRVTMTRDTSISTAYMELSRLRSDDTAVYYCARDIYDSSDQLNVWGQGTLVTVSS VL: EIVLTQSPATLSLSPGERATLSCRASQSVSSYLAWYQQKPGQAPRLLIYDASNRATGIPARFSGSGSGTDFTLTISSLEPEDFAVYYCQQASIWPLTFGGGTKVEIKR ?
Result: 10.89
